assay: PAMPA permeability; assay type: in vitro ADME; conditions: PAMPA, redispersed in FaSSIF
property-label: Papp

Supply measured Papp of C[C@@H](O[C@H]1OCCN(Cc2n[nH]c(=O)[nH]2)[C@H]1c1ccc(F)cc1)c1cc(C(F)(F)F)cc(C(F)(F)F)c1 [Aprepitant] in your reply. 0.044 ×10⁻⁶ cm/s
